Reported values of Cmax for individual entries
- Protocol Description: Rat 28-day toxicokinetics
- Format: in vivo
- Study Conditions: female, Sprague Dawley (Crl:CD (SD)IGS BR), plasma, po, 200 mg/kg/day, Day 28, female
- Description: In the rat repeated-dose toxicokinetic study, fexinidazole was administered orally by gavage once a day for 28 consecutive days to ten or fifteen Crl:CD (SD)IGS BR rats/sex/group at doses of 50, 200, or 800 mg/kg/day. […] Systemic exposure to fexinidazole and its sulfoxide and sulfone metabolites was evaluated in three additional animals/sex/group. […] ULOQ Upper limit of quantification […] 24 hours post dosing was calculated and denoted AUC0-24. […]
State the answer as a number, implicitly in ng/mL.

Which Cmax is listed for Cn1c([N+](=O)[O-])cnc1COc1ccc([S+](C)[O-])cc1 (stereo not drawn) [Fexinidazole sulfoxide] ? 22300

Which Cmax is listed for CSc1ccc(OCc2ncc([N+](=O)[O-])n2C)cc1 ? 903

Which Cmax is listed for Cn1c([N+](=O)[O-])cnc1COc1ccc(S(C)(=O)=O)cc1 ? 21400
